Reference source for all entries: the NIST ThermoML archive (doi:10.1016/j.jct.2012.09.017)

Assay Details: activity coefficient (dimensionless); of the first substance listed, at infinite dilution; xn = mol fraction of the nth substance listed
Protocol Conditions: 323.15 K; 101 kPa; Liquid; Chromatography; x1 = 0
Measurement Kind: activity coefficient

Some compounds with recorded activity coefficient:
compound="CCCCCCCC [octane] + CCCC[N+]1(C)CCCC1.N#C[B-](C#N)(C#N)C#N" value_reported=31.8
compound="c1ccccc1 [benzene] + CCCC[N+]1(C)CCCC1.N#C[B-](C#N)(C#N)C#N" value_reported=0.841
compound="ClCCl [dichloromethane] + CCCC[N+]1(C)CCCC1.N#C[B-](C#N)(C#N)C#N" value_reported=0.542
compound="CCC(C)=O [butanone] + CCCC[N+]1(C)CCCC1.N#C[B-](C#N)(C#N)C#N" value_reported=0.551
compound="C1CCCCC1 [cyclohexane] + CCCC[N+]1(C)CCCC1.N#C[B-](C#N)(C#N)C#N" value_reported=8.26
compound="ClC(Cl)(Cl)Cl [tetrachloromethane] + CCCC[N+]1(C)CCCC1.N#C[B-](C#N)(C#N)C#N" value_reported=2.41

P = CC(C)OC(C)C [diisopropyl ether] + CCCC[N+]1(C)CCCC1.N#C[B-](C#N)(C#N)C#N
Q = c1ccsc1 [thiophene] + CCCC[N+]1(C)CCCC1.N#C[B-](C#N)(C#N)C#N
Please indicate which entry, P or Q , has the lower recorded activity coefficient value. Pick one and reply with its label.
Q
(Q: 0.688, P: 5.88)

P = CCO [ethanol] + CCCC[N+]1(C)CCCC1.N#C[B-](C#N)(C#N)C#N
Q = CCCCCCC [heptane] + CCCC[N+]1(C)CCCC1.N#C[B-](C#N)(C#N)C#N
R = CC#N [acetonitrile] + CCCC[N+]1(C)CCCC1.N#C[B-](C#N)(C#N)C#N
List these items ordered by activity coefficient, big to small. Return value: ordered labels per request.
Q, P, R
(Q: 22.4, P: 1.27, R: 0.426)

I = CCC1CCCCC1 [ethylcyclohexane] + CCCC[N+]1(C)CCCC1.N#C[B-](C#N)(C#N)C#N
II = COCCOC [1,2-dimethoxyethane] + CCCC[N+]1(C)CCCC1.N#C[B-](C#N)(C#N)C#N
III = CCCO [propan-1-ol] + CCCC[N+]1(C)CCCC1.N#C[B-](C#N)(C#N)C#N
IV = CO [methanol] + CCCC[N+]1(C)CCCC1.N#C[B-](C#N)(C#N)C#N
V = COC(C)(C)C [2-methoxy-2-methylpropane] + CCCC[N+]1(C)CCCC1.N#C[B-](C#N)(C#N)C#N
List these items ordered by activity coefficient, big to small. Return value: ordered labels per request.
I, V, III, IV, II

A = C=CCCCCCC [oct-1-ene] + CCCC[N+]1(C)CCCC1.N#C[B-](C#N)(C#N)C#N
B = ClC(Cl)Cl [trichloromethane] + CCCC[N+]1(C)CCCC1.N#C[B-](C#N)(C#N)C#N
C = CCOC(C)=O [ethyl acetate] + CCCC[N+]1(C)CCCC1.N#C[B-](C#N)(C#N)C#N
List these items ordered by activity coefficient, big to small. Return value: ordered labels per request.
A, C, B

---

Assay Details: activity coefficient (dimensionless); of the first substance listed, at infinite dilution; xn = mol fraction of the nth substance listed
Protocol Conditions: 318.15 K; 101 kPa; Liquid; Chromatography; x1 = 0
Measurement Kind: activity coefficient

compound="ClC(Cl)Cl [trichloromethane] + CCCC[N+]1(C)CCCC1.N#C[B-](C#N)(C#N)C#N" measurement_kind="activity coefficient" value_reported=0.609
compound="CC(C)=O [acetone] + CCCC[N+]1(C)CCCC1.N#C[B-](C#N)(C#N)C#N" measurement_kind="activity coefficient" value_reported=0.445
compound="COC(=O)OC [dimethyl carbonate] + CCCC[N+]1(C)CCCC1.N#C[B-](C#N)(C#N)C#N" measurement_kind="activity coefficient" value_reported=0.522

P = CC(C)OC(C)C [diisopropyl ether] + CCCC[N+]1(C)CCCC1.N#C[B-](C#N)(C#N)C#N
Q = C1CCCCC1 [cyclohexane] + CCCC[N+]1(C)CCCC1.N#C[B-](C#N)(C#N)C#N
R = COC(C)(C)C [2-methoxy-2-methylpropane] + CCCC[N+]1(C)CCCC1.N#C[B-](C#N)(C#N)C#N
Task for the reader: rank each entry by its activity coefficient, from the minimum upward. Return value: ordered labels per request.
R, P, Q
(R: 2.39, P: 5.87, Q: 8.51)

I = ClCCl [dichloromethane] + CCCC[N+]1(C)CCCC1.N#C[B-](C#N)(C#N)C#N
II = CCO [ethanol] + CCCC[N+]1(C)CCCC1.N#C[B-](C#N)(C#N)C#N
Please indicate which entry, I or II , has the lower recorded activity coefficient value. Pick one and reply with its label.
I
(I: 0.536, II: 1.32)

---

Assay Details: activity coefficient (dimensionless); of the first substance listed, at infinite dilution; xn = mol fraction of the nth substance listed
Protocol Conditions: 353.15 K; 101 kPa; Liquid; Chromatography; x1 = 0
Measurement Kind: activity coefficient

Some compounds with recorded activity coefficient:
compound="CCc1ccccc1 [ethylbenzene] + CCCC[N+]1(C)CCCC1.N#C[B-](C#N)(C#N)C#N" value_reported=1.73
compound="Cc1ccccc1 [toluene] + CCCC[N+]1(C)CCCC1.O=C1O[B-]2(OC1=O)OC(=O)C(=O)O2" value_reported=2.47
compound="CC(C)=O [acetone] + CCCC[N+]1(C)CCCC1.O=C1O[B-]2(OC1=O)OC(=O)C(=O)O2" value_reported=0.773
compound="C[N+](=O)[O-] [nitromethane] + CCCC[N+]1(C)CCCC1.N#C[B-](C#N)(C#N)C#N" value_reported=0.433

a = CCc1ccccc1 [ethylbenzene] + CCCC[N+]1(C)CCCC1.O=C1O[B-]2(OC1=O)OC(=O)C(=O)O2
b = CC#N [acetonitrile] + CCCC[N+]1(C)CCCC1.O=C1O[B-]2(OC1=O)OC(=O)C(=O)O2
c = C=CCCCCCC [oct-1-ene] + CCCC[N+]1(C)CCCC1.N#C[B-](C#N)(C#N)C#N
d = CC(C)OC(C)C [diisopropyl ether] + CCCC[N+]1(C)CCCC1.N#C[B-](C#N)(C#N)C#N
Task for the reader: rank each entry by its activity coefficient, from the minimum upward. Return value: ordered labels per request.
b, a, d, c

---

Assay Details: activity coefficient (dimensionless); of the first substance listed, at infinite dilution; xn = mol fraction of the nth substance listed
Protocol Conditions: 353.15 K; 101 kPa; Liquid; Chromatography; x1 = 0
Measurement Kind: activity coefficient

compound="CCC1CCCCC1 [ethylcyclohexane] + CCCC[N+]1(C)CCCC1.O=C1O[B-]2(OC1=O)OC(=O)C(=O)O2" measurement_kind="activity coefficient" value_reported=33
compound="c1ccsc1 [thiophene] + CCCC[N+]1(C)CCCC1.N#C[B-](C#N)(C#N)C#N" measurement_kind="activity coefficient" value_reported=0.733
compound="Cc1cccc(C)c1 [1,3-dimethylbenzene] + CCCC[N+]1(C)CCCC1.N#C[B-](C#N)(C#N)C#N" measurement_kind="activity coefficient" value_reported=1.72

P = CO [methanol] + CCCC[N+]1(C)CCCC1.O=C1O[B-]2(OC1=O)OC(=O)C(=O)O2
Q = CCO [ethanol] + CCCC[N+]1(C)CCCC1.O=C1O[B-]2(OC1=O)OC(=O)C(=O)O2
Please indicate which entry, P or Q , has the lower recorded activity coefficient value. Pick one and reply with its label.
P

---

Assay Details: activity coefficient (dimensionless); of the first substance listed, at infinite dilution; xn = mol fraction of the nth substance listed
Protocol Conditions: 343.15 K; 101 kPa; Liquid; Chromatography; x1 = 0
Measurement Kind: activity coefficient

compound="ClC(Cl)(Cl)Cl [tetrachloromethane] + CCCC[N+]1(C)CCCC1.O=C1O[B-]2(OC1=O)OC(=O)C(=O)O2" value_reported=4.14

1 = c1ccccc1 [benzene] + CCCC[N+]1(C)CCCC1.N#C[B-](C#N)(C#N)C#N
2 = CCc1ccccc1 [ethylbenzene] + CCCC[N+]1(C)CCCC1.N#C[B-](C#N)(C#N)C#N
Please indicate which entry, 1 or 2 , has the lower recorded activity coefficient value. Pick one and reply with its label.
1
(1: 0.874, 2: 1.71)

---

Assay Details: activity coefficient (dimensionless); of the first substance listed, at infinite dilution; xn = mol fraction of the nth substance listed
Protocol Conditions: 333.15 K; 101 kPa; Liquid; Chromatography; x1 = 0
Measurement Kind: activity coefficient

Some compounds with recorded activity coefficient:
compound="CO [methanol] + CCCC[N+]1(C)CCCC1.N#C[B-](C#N)(C#N)C#N" value_reported=0.931
compound="CCCO [propan-1-ol] + CCCC[N+]1(C)CCCC1.N#C[B-](C#N)(C#N)C#N" value_reported=1.34
compound="Cc1cccc(C)c1 [1,3-dimethylbenzene] + CCCC[N+]1(C)CCCC1.O=C1O[B-]2(OC1=O)OC(=O)C(=O)O2" value_reported=3.96
compound="C=CCCCCCC [oct-1-ene] + CCCC[N+]1(C)CCCC1.N#C[B-](C#N)(C#N)C#N" value_reported=14.7
compound="C1CCCCC1 [cyclohexane] + CCCC[N+]1(C)CCCC1.O=C1O[B-]2(OC1=O)OC(=O)C(=O)O2" value_reported=20.2
compound="COC(=O)OC [dimethyl carbonate] + CCCC[N+]1(C)CCCC1.O=C1O[B-]2(OC1=O)OC(=O)C(=O)O2" value_reported=0.853
compound="C[N+](=O)[O-] [nitromethane] + CCCC[N+]1(C)CCCC1.N#C[B-](C#N)(C#N)C#N" value_reported=0.429
compound="CCO [ethanol] + CCCC[N+]1(C)CCCC1.N#C[B-](C#N)(C#N)C#N" value_reported=1.17

A = FC(F)(F)C(Cl)Br (stereo unspecified) [1-bromo-1-chloro-2,2,2-trifluoroethane] + CCCC[N+]1(C)CCCC1.N#C[B-](C#N)(C#N)C#N
B = C=CCCCCCC [oct-1-ene] + CCCC[N+]1(C)CCCC1.O=C1O[B-]2(OC1=O)OC(=O)C(=O)O2
Please indicate which entry, A or B , has the lower recorded activity coefficient value. Pick one and reply with its label.
A
(A: 0.923, B: 41.4)
